System: PC-3 prostate
ASSAY OVERVIEW: NCI tumour cell line growth inhibition, 48 h; in the data active = GI50 below about 0.43 µM; inactive = the rest
Possible outcomes: Yes for active, No for inactive

[[record]]
compound = "C=C(C)[C@]12CC(C)C34OC(/C=C\\C=C\\CCCCCCCCC)(O[C@@H]1[C@@H]3[C@@H]1O[C@]1(CO)[C@@H](O)[C@]1(O)C(=O)C(C)=C[C@@H]41)O2 (stereo not given in full)"
cat = "Yes"

[[record]]
compound = "COc1cc(/C=C\\c2cccnc2Nc2ccccc2)cc(OC)c1OC"
cat = "No"

[[record]]
compound = "COc1ccc(N(Cc2cc(OC)c(OC)c(OC)c2)C2OC(=O)c3ccccc32)cc1 (stereo not given)"
cat = "No"

[[record]]
compound = "C=CC[PH+](c1ccccc1)c1ccccc1.C=CC[PH+](c1ccccc1)c1ccccc1.[Cl][Pt][Cl]"
cat = "No"

[[record]]
compound = "CCCCCCN1C(=O)CN=C1Nc1ccc2cc3ccc(NC4=NCC(=O)N4CCCCCC)cc3nc2c1"
cat = "No"


###

Quick reference: GI50 of the listed items.
Tested on: PC-3 prostate
ASSAY OVERVIEW: NCI tumour cell line growth inhibition, 48 h
READOUT TYPE: GI50

[[record]]
compound = "O=[N+]([O-])c1cccc(-c2ncc(-c3ccc(Cl)cc3Cl)[nH]2)c1"
readout_type = "GI50"
result_value = "3.69 µM"

[[record]]
compound = "O=c1c2cc(F)ccc2sc2c(NCCCN3CCCC3)nc3ccccc3c12"
readout_type = "GI50"
result_value = "1.6 µM"

[[record]]
compound = "O=C(CN=Cc1cccs1)CSC(c1ccccc1)c1ccccc1"
readout_type = "GI50"
result_value = "17.5 µM"

[[record]]
compound = "O=C(Nc1ccccc1)Nc1ccccc1CNc1nc(Nc2ccc(OCCN3CCCC3)cc2)ncc1Cl"
readout_type = "GI50"
result_value = "6.06 µM"

[[record]]
compound = "Nc1ncnc2c1ncn2Cc1ccc(C23CC4CC(CC(C4)C2)C3)c(O)c1"
readout_type = "GI50"
result_value = "8.36 µM"

[[record]]
compound = "CC1SC2(CCCCC2)N(NC(=O)c2[nH]c3ccc(F)cc3c2-c2ccccc2)C1=O (configuration not stated)"
readout_type = "GI50"
result_value = "41.2 µM"

[[record]]
compound = "CC(C)n1nc(C#Cc2cccc(NC(=O)c3cccc(C(F)(F)F)c3)c2)c2c(N)ncnc21"
readout_type = "GI50"
result_value = "2.91 µM"


###

Test system: MDA-MB-231 breast
ASSAY OVERVIEW: NCI tumour cell line growth inhibition, 48 h
READOUT TYPE: TGI (µM)

[[record]]
compound = "CCOC(=O)Cc1nc2c(=O)[nH]cnc2n1C1OC(COC(C)=O)C(OC(C)=O)C1OC(C)=O (stereo not given)"
modifier_sign = ">"
result_value = 100

[[record]]
compound = "Cc1cccc(N2CCN(S(=O)(=O)c3ccc(Cl)cc3)C2=N)c1C"
modifier_sign = ">"
result_value = 100

[[record]]
compound = "Cc1cnc2[nH]c(-c3ccccc3)cc(=O)c2c1"
modifier_sign = ">"
result_value = 100

[[record]]
compound = "C/C(=N\\O)c1ccc(Nc2c3ccccc3nc3occc23)cc1"
modifier_sign = ">"
result_value = 39.3

[[record]]
compound = "CSc1nc(Br)nc2c1ncn2C1CC(Oc2ccc(C)cc2)C(COc2ccc(C)cc2)O1 (stereo not given)"
modifier_sign = ">"
result_value = 100

[[record]]
compound = "CSc1s[s+]c(SC)c1-c1ccccc1"
modifier_sign = "="
result_value = 31.2

[[record]]
compound = "C=C(C)[C@]12CC(C)C34OC(/C=C\\C=C\\CCCCCCCCC)(O[C@@H]1[C@@H]3[C@@H]1O[C@]1(CO)[C@@H](O)[C@]1(O)C(=O)C(C)=C[C@@H]41)O2 (stereo not given in full)"
modifier_sign = "="
result_value = 15.4

[[record]]
compound = "COc1cc2c(cc1OC)[C@H]1C(=O)c3cc4c(cc3[C@H]1N(C)C2=O)OCO4"
modifier_sign = ">"
result_value = 100

[[record]]
compound = "Cc1ccc(Nc2nnc3n2S(=O)(=O)c2cc(C)c(Cl)cc2S3)cc1"
modifier_sign = "="
result_value = 82.4

[[record]]
compound = "Nc1ccc2c(c1)CN1C(=O)c3ccccc3C1=N2"
modifier_sign = "="
result_value = 123

